# STUDY_TARGET: Sigma non-opioid intracellular receptor 1 (Cavia porcellus, UniProt Q60492)
# Sequence (Q60492 whole entry): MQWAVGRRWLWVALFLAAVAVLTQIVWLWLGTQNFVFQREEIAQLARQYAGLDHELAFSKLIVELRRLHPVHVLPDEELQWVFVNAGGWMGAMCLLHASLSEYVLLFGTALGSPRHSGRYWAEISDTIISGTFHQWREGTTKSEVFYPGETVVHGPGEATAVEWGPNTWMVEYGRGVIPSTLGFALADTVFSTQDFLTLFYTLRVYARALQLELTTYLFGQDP
# EXPERIMENT_NOTES: Displacement of (+)-pentazocine from sigma1 receptor in guinea pig brain cortex membrane by scintillation counting analysis
OBSERVABLE: Ki

Specify Ki for COc1cc2c(cc1C(C)NCCc1ccccc1)C=CC(C)(C)O2 (centres undefined) and stop.
29 nM

Supply reported Ki belonging to this compound: COc1cc2c(cc1C(C)N(C)CCCc1ccccc1)C=CC(C)(C)O2 (centres undefined)
0.95 nM

Retrieve Ki measured for COc1cc2c(cc1C(C)NCCCc1ccccc1)C=CC(C)(C)O2 (centres undefined) and print it.
11 nM

Tell us which Ki value is on record for `COc1cc2c(cc1[C@H](C)NCc1ccccc1)C=CC(C)(C)O2`
85 nM
